tested on: HL-60(TB) leukemia; test: NCI-60 one-dose screen, 48 h; settings: 10 µM unless noted
Compounds without any hit were thinned out: in the full panel of roughly 83,000, 20% have a hit. The source made the active and inactive calls. How the source made its calls: active means growth percent below 10; inactive means the rest.
Possible outcomes: TRUE = active, FALSE = inactive

{"COMPOUND": "O=C(Cc1ccc(Nc2ccnc(C(F)(F)F)c2)cc1)N/N=C/c1ccccc1O", "CLASS": "FALSE"}
{"COMPOUND": "O=C(Nc1cccc(-c2nc3ccccc3[nH]2)c1)c1cccc(NC(=O)c2ccco2)c1", "CLASS": "FALSE"}
{"COMPOUND": "COCN1CCC2N(COC)CCC3N(COC)CCC1N23 (centres undefined)", "CLASS": "FALSE"}
{"COMPOUND": "Nc1ccc2c(c1)C(=O)NC2=O", "CLASS": "FALSE"}
{"COMPOUND": "O=C(Nc1ccccc1)NS(=O)(=O)c1c[nH]c(=S)[nH]c1=O", "CLASS": "FALSE"}
{"COMPOUND": "CCOC(=O)CNC(=O)Nc1ccc(Oc2ccc(NC(=O)NCC(=O)OCC)cc2)cc1", "CLASS": "FALSE"}
{"COMPOUND": "CN1C(=O)/C(=C/c2ccc(C(=O)Nc3ncc(Cc4ccc(F)cc4)s3)cc2)SC1=S", "CLASS": "FALSE"}
{"COMPOUND": "CCOC(=O)/C(C#N)=C(/C)C1CC1", "CLASS": "FALSE"}
{"COMPOUND": "Nc1ccc(/C=N/Nc2ccnc3c(N)cccc23)c2cccnc12", "CLASS": "TRUE"}
{"COMPOUND": "COc1ccc2[nH]c(C(=O)N3CCN(C(=O)OCc4ccc5c(Cl)cc(Cl)c(O)c5n4)CC3)cc2c1", "CLASS": "TRUE"}
{"COMPOUND": "COc1ccc2[nH]c(-c3ccccc3)cc2c1", "CLASS": "FALSE"}
{"COMPOUND": "Nc1nc(N)c2c(n1)NC(c1cccc(Nc3ccnc4cc(C(F)(F)F)ccc34)c1)CC(c1ccc(Br)cc1)=N2 (centres undefined)", "CLASS": "FALSE"}
{"COMPOUND": "COC(=O)c1c2c(c(C)[n+]([O-])c1C)C(=O)C=C(NCc1cccc(Cl)c1)C2=O", "CLASS": "TRUE"}
{"COMPOUND": "BrC(Br)(Br)c1cnc2ccccc2n1", "CLASS": "TRUE"}
{"COMPOUND": "CN1CCN(Cc2ccc(NC(=O)c3cncc(C#Cc4cnc5cccnn45)c3)cc2C(F)(F)F)CC1", "CLASS": "TRUE"}
{"COMPOUND": "COc1cc(C2NC(c3ccc(Cl)cc3)C(C)/C(=N/NC(N)=S)C2C)cc(OC)c1OC (centres undefined)", "CLASS": "FALSE"}
{"COMPOUND": "COc1ccc(-c2[nH]ncc2/C=C/c2cc(C(F)(F)F)[nH]c(=O)n2)cc1", "CLASS": "FALSE"}
{"COMPOUND": "O=C(Nc1ccccc1)Nc1ncnc2c1ncn2-c1ccc(Cl)cc1", "CLASS": "FALSE"}
{"COMPOUND": "COc1cccc(NC(=O)c2sc3nc4c(cc3c2N)C(O)CCC4)c1 (centres undefined)", "CLASS": "TRUE"}
{"COMPOUND": "COc1ccc2cc(C(=O)N3CCC([C@@H](C)C(=O)NCc4ccc5c(c4)OCO5)CC3)[nH]c2c1", "CLASS": "FALSE"}
{"COMPOUND": "CCOc1ccc(C(=O)O)cc1", "CLASS": "FALSE"}
{"COMPOUND": "C/C(=C(\\c1ccc(OCCCN(C)C)cc1)c1ccc(OC(=O)Cc2ccccc2)cc1)c1ccc(Cl)cc1", "CLASS": "FALSE"}
{"COMPOUND": "COC(/C=C/c1ccc([N+](=O)[O-])cc1)OC", "CLASS": "FALSE"}
{"COMPOUND": "C1=CN2CC(c3ccccc3)=NNC2c2ccccc21 (centres undefined)", "CLASS": "FALSE"}
{"COMPOUND": "CCC1C[N+]2=C(c3cc(OC)c(OC)cc3CC2)c2c1cc1n2CCc2cc(OC)c(OC)cc2-1 (centres undefined)", "CLASS": "TRUE"}
{"COMPOUND": "O=C(Nc1ncc(Cc2cc(C(F)(F)F)ccc2Cl)s1)c1cccs1", "CLASS": "FALSE"}
{"COMPOUND": "O=C(Oc1ccccc1Cl)c1ccc(Cl)cc1Cl", "CLASS": "FALSE"}
{"COMPOUND": "[O-][n+]1ccccc1CCN(O)CCc1cccc[n+]1[O-]", "CLASS": "FALSE"}
{"COMPOUND": "COc1ccc(OC)c([N+](=O)[O-])c1C(=O)CNC(C)=O", "CLASS": "FALSE"}

====

tested on: ACHN renal; assay: NCI-60 one-dose screen, 48 h; conditions: 10 µM unless noted
The panel holds about 83,000 compounds, 20% with a hit somewhere; the sample as a whole holds those more often. Calls of active or inactive are those of the source. Rule for the calls: active = growth percent below 10; inactive = the rest.
Possible outcomes: 1.0 (active), 0.0 (inactive)

{"COMPOUND": "CCOC(=O)C1(c2ccccc2)CCN(CC(=O)c2ccc(NC(C)=O)cc2)CC1", "CLASS": 0.0}
{"COMPOUND": "Clc1ccc(SSC(Cl)(Cl)Cl)cc1", "CLASS": 0.0}
{"COMPOUND": "CC(/C=N/N=C(N)N)=N/N=C(N)N", "CLASS": 0.0}
{"COMPOUND": "CCC(C)/C=C(C)/C=C/C(=O)c1c(O)c(-c2ccc(O)cc2)c[nH]c1=O (stereo unspecified)", "CLASS": 0.0}
{"COMPOUND": "Nc1ncnc2c1c(C(=O)NO)cn2C1OC(CO)C(O)C1O (stereo unspecified)", "CLASS": 1.0}
{"COMPOUND": "NCCc1cc(O)c(O)cc1O", "CLASS": 0.0}
{"COMPOUND": "S=P(N1CCCCCC1)(N1CC1)N1CC1", "CLASS": 0.0}
{"COMPOUND": "COc1cc2c(cc1OC)CN(C)C(C)C2 (stereo unspecified)", "CLASS": 0.0}
{"COMPOUND": "OB([O][Hg][c]1ccccc1)[O][Hg][c]1ccccc1", "CLASS": 1.0}
{"COMPOUND": "CC(C)(O)/C=C/C(=O)[C@](C)(O)[C@H]1[C@H](O)C[C@@]2(C)[C@@H]3CC=C4[C@@H](C=C(O)C(=O)C4(C)C)[C@]3(C)C(=O)C[C@]12C", "CLASS": 1.0}
{"COMPOUND": "COc1cc(N(CCCl)CCCl)ccc1C=Nc1ccccc1C(=O)O", "CLASS": 0.0}
{"COMPOUND": "S=P(NC1CCCCC1)(N1CC1)N1CC1", "CLASS": 0.0}
{"COMPOUND": "O=[N+]([O-])c1ccccc1N1CCNCC1", "CLASS": 0.0}
{"COMPOUND": "CC(C)(C)NCC(O)c1ccccc1Cl (stereo unspecified)", "CLASS": 0.0}
{"COMPOUND": "CC(=O)OC1CCC2(C)C(=CCC3C4CC(CN5CC5)C(=O)C4(C)CCC32)C1 (stereo unspecified)", "CLASS": 0.0}
{"COMPOUND": "COC(=O)C(=[N+]=[N-])C(=O)OC", "CLASS": 0.0}
{"COMPOUND": "NC(Cc1ccc(O)cc1)C(=O)N/N=C/c1ccc(N(CCCl)CCCl)cc1 (stereo unspecified)", "CLASS": 0.0}
{"COMPOUND": "CCCC(C)(C)c1ccc2c(c1)OC(C)(C)[C@@H]1CC=C(C)C[C@@H]21", "CLASS": 0.0}
{"COMPOUND": "COc1cccc2c1C(=O)c1c(O)c3c(c(O)c1C2=O)CC(O)(/C(C)=N/NC(=O)CCC(=O)N/N=C(\\C)C1(O)Cc2c(O)c4c(c(O)c2C(OC2CC(N)C(O)C(C)O2)C1)C(=O)c1c(OC)cccc1C4=O)CC3OC1CC(N)C(O)C(C)O1 (stereo unspecified)", "CLASS": 1.0}
{"COMPOUND": "CN(Cc1cccnc1)N=O", "CLASS": 0.0}
{"COMPOUND": "Cc1cc(C)nc(C)c1.[Cl][Hg][Cl]", "CLASS": 0.0}
{"COMPOUND": "CN=C(NN)NN", "CLASS": 0.0}
{"COMPOUND": "O=C(CCF)c1ccc(O)cc1", "CLASS": 0.0}
{"COMPOUND": "NC(=O)C(Cl)Cl", "CLASS": 0.0}
{"COMPOUND": "CCOC(=O)/C=C(\\C)Nc1ccc(N/C(C)=C/C(=O)OCC)c2c1Oc1ccccc1O2", "CLASS": 0.0}
{"COMPOUND": "CC(C)CCC1(CCO)C(=O)NC(=S)NC1=O", "CLASS": 0.0}

From: PubChem BioAssay (NCI)
